Entries and their measured activity change, negative = inhibition follow.
assay: AP1 Signaling Pathway (AID 357); settings: ME-180 (cervical carcinoma) AP-1-bla reporter, EGF-induced, beta-lactamase ratio, 5 h; at 7.69 µM (top of the series) unless noted;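 also: ME-180 reporter cells stimulated with EGF at its EC50 level; % is scaled to controls: 0 for no effect and ±100 for the full control effect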
Results filed as inconclusive are left out.
Numbers only; they are read as %.

In the examples that follow, each entry is paired with its recorded activity change, negative = inhibition.
| compound structure | unit symbol | activity change, negative = inhibition |
| --- | --- | --- |
| c1cncc(CNc2ccnc(-c3ccc4c(c3)OCO4)n2)c1 | % | -20.8 |
| COCCn1c(=O)c(-c2cccc(C#N)c2)nc2cnc(OC)nc21 | % | -22.4 |
| Cc1noc(C)c1-c1cc(N2CCN(C)CC2)ncn1 | % | 4.49 |

Need activity change, negative = inhibition, item O=c1c(-c2ccc(Cl)cc2)nc2cnc(Oc3ccccc3)nc2n1C1CC1 -21

Need activity change, negative = inhibition, item O=C(Nc1ccccc1)N1CCC2(CC1)CCN(S(=O)(=O)c1ccccc1)CC2 -0.036

Need activity change, negative = inhibition, item CN(C)c1ncc2nc(-c3ccc(F)cc3)c(=O)n(C)c2n1 -9.27

###

Experiment: qHTS Assay for Lipid Storage Modulators (AID 1519)
Conditions: Drosophila S3 cells, BODIPY lipid droplet/cell ratio, laser cytometry; measured here: lipid channel max response; cells loaded with oleic acid
Protocol: NIH Molecular Libraries Probe Production Centers Network [MLPCN] NIH Chemical Genomics Center [NCGC] Assay Submitter (PI): Beller, Mathias; Max-Planck-Institut fur Biophysikalische Chemie […] We dispensed 4 uL of cells at 1.25 x 10^6 cells/mL into LoBase Aurora COC 1,536-well plates (black walled, clear bottom) with a bottle-valve solenoid-based dispenser (Aurora) to obtain 5,000 cells/well. […] The ratio of the total intensity in PMT channel 1 over total intensity of channel 3 was also calculated. […]
Results filed as inconclusive are left out.
Entries and their measured max response follow.
Numbers only; they are read as %.

In the examples that follow, each entry is paired with its recorded max response.
| molecule | unit symbol | max response |
| --- | --- | --- |
| O=C(c1cnccn1)N1CCC2(CCCN(c3ccccc3)C2)CC1 | % | 29.2 |
| O=C(Nc1cccc(F)c1)N1CCC2(CCNCC2)CC1 | % | 23.2 |
| COCC(=O)N1CCC2(CCCN(C(=O)Nc3cccc(F)c3)C2)CC1 | % | 14.2 |
| N#CCCn1c(=O)c(-c2ccc(Cl)cc2)nc2cnc(Oc3ccccc3)nc21 | % | 24.2 |
| CN(C)c1ncc2ncc(=O)n(CCC#N)c2n1 | % | 29.8 |
| COc1ccccc1-c1cncnc1NCCN1CCOCC1 | % | 4.66 |

Attention now shifts to the item below.
Need max response, item CNc1ccnc(-c2ccccc2CN(C)C)n1 2.14

###

molecular target: Cytochrome P450 1A2 (Homo sapiens) (UniProt P05177); assay: p450-cyp1a2 (AID 410); conditions: recombinant CYP1A2, luciferin-ME demethylation, luminescence; series mostly up to 57 µM; also: potency is read from the fitted curve at half-maximal effect
Sequence (P05177 whole entry, looked up): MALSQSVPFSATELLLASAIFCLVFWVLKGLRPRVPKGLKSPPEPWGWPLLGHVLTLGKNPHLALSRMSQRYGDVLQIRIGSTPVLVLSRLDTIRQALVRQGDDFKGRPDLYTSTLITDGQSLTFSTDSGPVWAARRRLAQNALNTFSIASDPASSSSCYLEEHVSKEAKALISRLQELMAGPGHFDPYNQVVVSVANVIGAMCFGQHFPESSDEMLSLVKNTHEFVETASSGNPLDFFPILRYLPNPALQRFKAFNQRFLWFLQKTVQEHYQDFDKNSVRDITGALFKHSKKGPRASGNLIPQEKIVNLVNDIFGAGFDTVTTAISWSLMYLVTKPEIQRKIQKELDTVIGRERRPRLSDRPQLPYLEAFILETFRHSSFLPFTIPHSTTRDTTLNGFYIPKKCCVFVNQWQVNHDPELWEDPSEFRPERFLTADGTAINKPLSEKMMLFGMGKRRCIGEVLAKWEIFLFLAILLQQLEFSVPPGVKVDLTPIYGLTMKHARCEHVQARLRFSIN
Results filed as inconclusive are left out. Active and inactive are the calls of the source. Calls come from the whole dose curve.
measured parameter: Potency

In the examples that follow, each entry is paired with its recorded Potency.
| compound structure | measurement |
| --- | --- |
| COC(=O)N1CCC2(CC1)CCN(c1ccccc1)CC2 | inactive |
| Cc1nc2cnc(N(C)C)nc2n(Cc2ccc(F)cc2)c1=O | 2000 nM (active) |
| Cc1cccc(CNc2ncncc2-c2ccc3c(c2)OCO3)c1 | 126 nM (active) |
| CS(=O)(=O)Nc1cccc(-c2ccc3ncnc(N4CCNCC4)c3c2)c1 | 12600 nM (active) |

Attention now shifts to the item below.
Need Potency, item CC(=O)N1CCC2(CC1)CN(c1ccncc1)C2 inactive

###

test: qHTS drug screen for cell cycle checkpoint inhibitors in PARPi-resistant BRCA-mutant ovarian cancer cell lines. (AID 1963452); conditions: PEO1/OlaR viability, CellTiter-Glo luminescence, 96 h; measured here: PEO4 Z-AUC; stronger effect = lower value
measured parameter: Z-AUC
Form rule: numeric answer, no unit written next to it.

| compound | measurement |
| --- | --- |
| CCC(=O)N1CCOc2c(cc(-c3cc(OC)cc(OC)c3)cc2C(=O)N[C@H]2CCCN(C)C2)C1 | 0.4 |
| O=C1S/C(=C\c2ccc(OCc3cccc(B(O)O)c3)cc2)C(=O)N1Cc1ccc(F)cc1 | 0.814 |
| C[C@@H]1[C@H](O)[C@@H](C)/C=C/C=C/C=C/C=C/C=C/C=C/C=C/[C@H](O[C@@H]2O[C@H](C)[C@@H](O)[C@H](N)[C@@H]2O)C[C@@H]2O[C@](O)(C[C@@H](O)C[C@@H](O)[C@H](O)CC[C@@H](O)C[C@@H](O)CC(=O)O[C@H]1C)C[C@H](O)[C@H]2C(=O)O | 1.61 |
| Cc1c(F)cccc1NC(=O)Nc1ccc(Cl)c(S(=O)(=O)[C@H]2CCCNC2)c1O | 1.41 |

Need Z-AUC, item CC(C)(NS(=O)(=O)c1ccc2c(Cl)cnc(N=C(N)N)c2c1)C(=O)O 0.0928

Need Z-AUC, item C[C@@H](Oc1cc(C(=O)Nc2ccc(C(=O)N3CCN(C)CC3)cc2)nnc1N)c1c(Cl)ccc(F)c1Cl -1.2

Need Z-AUC, item Cc1ccc(-c2nc(N)nc3c2nnn3Cc2cccc(CO[C@H]3CCOC3)n2)o1 -1.11

Need Z-AUC, item CC(=O)Nc1cc(Oc2ccc3c(nc(Nc4ccc(F)cc4F)n3C)c2C)ccn1 -1.5

Need Z-AUC, item COCCOC(=O)N1CCN(S(=O)(=O)c2cc(F)c(Oc3ccc(Cl)cc3)c(F)c2)C(C(=O)NO)C1 (stereo not drawn) -1.17

Need Z-AUC, item CC(C)(O)CC[C@@H](O)[C@](C)(O)[C@H]1CC[C@@]2(O)C3=CC(=O)[C@@H]4C[C@@H](O)[C@@H](O)C[C@]4(C)[C@H]3CC[C@]12C 0.947

Need Z-AUC, item Nc1nccc2c1ncn2[C@@H]1C=C(CO)[C@@H](O)[C@H]1O -1.07

Need Z-AUC, item C[C@H](NC(=O)CCC(F)(F)F)C(=O)N[C@@H]1C(=O)N(CCO)c2ncccc2-c2ccccc21 -0.664

Need Z-AUC, item O=C(/C=C/N1C[C@H]2C[C@@H]1CN2c1ccccn1)c1ccccc1O 0.836

###

assay: qHTS Assay for Lipid Storage Modulators (AID 1519); conditions: Drosophila S3 cells, BODIPY lipid droplet/cell ratio, laser cytometry; measured here: cell count channel max response; cells loaded with oleic acid
Records with an inconclusive call do not appear.
Entries and their measured max response follow.
Numbers only; they are read as %.

In the examples that follow, each entry is paired with its recorded max response.
| compound structure | measured parameter | unit symbol | measurement |
| --- | --- | --- | --- |
| CC(=O)N1CCC2(CCCN(c3ccccc3)C2)CC1 | max response | % | 9.92 |
| O=C(c1cnccn1)N1CCC2(CCN(Cc3nccs3)CC2)CC1 | max response | % | -0.576 |
| COCC(=O)N1CCC[C@@]2(CCN(C(=O)Nc3cccc(F)c3)C2)C1 | max response | % | 19.2 |
| CS(=O)(=O)N1CCC2(CCN(c3ccccc3)CC2)CC1 | max response | % | 20.7 |

Need max response, item Cn1cc(-c2nc3cnc(Oc4cccc(Cl)c4)nc3n(CCC#N)c2=O)c2ccccc21 6.76

Need max response, item COCCn1c(=O)c(-c2cn(C)c3ccccc23)nc2cnc(Oc3cccc(Cl)c3)nc21 23.7

Need max response, item O=c1c(-c2ccc(F)cc2)nc2cnc(Oc3cccc(Cl)c3)nc2n1C1CC1 -8.94

Need max response, item CN(C)c1ccc(-c2cc(Nc3ccc(F)cc3)ncn2)cc1 -11.3

Need max response, item COCCNc1ncnc2ccc(-c3ccccc3C)cc12 -10.5

Need max response, item Cc1ccccc1-c1cc(NCCN2CCOCC2)ncn1 -3.29

###

biological target: Cytochrome P450 1A2 (Homo sapiens); test: p450-cyp1a2 (AID 410); settings: recombinant CYP1A2, luciferin-ME demethylation, luminescence; series mostly up to 57 µM; also: potency is read from the fitted curve at half-maximal effect
Results filed as inconclusive are left out. Activity calls are given as the source filed them. The call rests on the fitted dose curve.
Entries and their measured Potency follow.

| compound structure | Potency |
| --- | --- |
| COc1ccccc1-c1cncnc1NCc1cccnc1 | 6.31 µM (active) |
| Cc1nc2cnc(Oc3ccccc3)nc2n(C)c1=O | 12.6 µM (active) |
| COc1ccc(CNc2ccnc(-c3ccc4c(c3)OCO4)n2)c(OC)c1 | 1.26 µM (active) |

Attention now shifts to the item below.
Need Potency, item COCCNc1nc(-c2ccccc2CN(C)C)nc2ccccc12 10 µM (active)

###

assay: qHTS drug screen for cell cycle checkpoint inhibitors in PARPi-resistant BRCA-mutant ovarian cancer cell lines. (AID 1963452); conditions: PEO1/OlaR viability, CellTiter-Glo luminescence, 96 h; measured here: PEO4 Z-AUC; stronger effect = lower value
Z-AUC under 0.4 gets met, anything at or over 0.4 gets not met.

Does the reported Z-AUC of CCOc1ccc(-n2c([C@@H](C)N(Cc3cccnc3)C(=O)Cc3ccc(F)c(C(F)(F)F)c3)nc3ncccc3c2=O)cc1 stay below 0.4? not met

Does the reported Z-AUC of C[C@@H](O)[C@@H]1NC(=O)[C@H](CCCCN)NC(=O)[C@@H](Cc2c[nH]c3ccccc23)NC(=O)[C@H](Cc2ccccc2)NC(=O)[C@@H](NC(=O)[C@H](N)Cc2ccccc2)CSSC[C@@H](C(=O)N[C@H](CO)[C@@H](C)O)NC1=O stay below 0.4? not met

Does the reported Z-AUC of Cn1cc(-c2nc(N[C@@H]3CCCC[C@@H]3N)c(F)c3c2C(=O)NC3)cn1 stay below 0.4? not met

Does the reported Z-AUC of COc1cc(C(N)=O)ccc1NC(=O)[C@@H]1N[C@@H](CC(C)(C)C)[C@@]2(C(=O)Nc3cc(Cl)ccc32)[C@H]1c1cccc(Cl)c1F stay below 0.4? met

Does the reported Z-AUC of Nc1nc(OC(c2ccc(-c3cccc(F)c3)cc2)C(F)(F)F)cc(-c2ccc(C[C@H](N)C(=O)O)cc2)n1 (stereo partly specified) stay below 0.4? met

Does the reported Z-AUC of Cc1cc(O)cc2c1[C@]1(C)CC[C@H]3C(C)(C)CCC[C@]3(C)[C@H]1C2 stay below 0.4? not met

The values you see were collected from PubChem BioAssay (NCATS).
